Values from paper PMC10231232

Tested on: PoAAO
Construct: gene AAO; 60,903 Da
experimentNotes: steady-state kinetics, absorbance of aldehyde formed
Type: biochemical, Pleurotus ostreatus
experimentalConditions: apparent, air-saturated (0.256 mM O2), 50 mM NaPi pH 6.0, 25°C
The reader will find reported Km values listed item by item below.
propertyMeasured: Km (µM)

compound="COc1ccc(CO)cc1OC [veratryl alcohol]" propertymeasured=Km reported=212
compound="OCc1cccc(Cl)c1 [3-chlorobenzyl alcohol]" propertymeasured=Km reported=80
compound="CC=CC=CCO [2,4-hexadien-1-ol]" propertymeasured=Km reported=86
compound="COc1ccc(CO)cc1Cl [3-chloro-p-methoxybenzyl alcohol]" propertymeasured=Km reported=9
compound="COc1ccc(CO)cc1O [isovanillyl alcohol]" propertymeasured=Km reported=713
